Biological target: Fuc(a1-2)Gal(b1-4)GlcNAc(b1-2)Man(a1-3)[Fuc(a1-2)Gal(b1-4)GlcNAc(b1-2)Man(a1-6)]Man(b1-4)GlcNAc(b1-4)[Fuc(a1-6)]GlcNAc
Test: glycan array binding signal (z-score within array); higher = stronger binding
Details: glycan notation: IUPAC condensed, linker removed
Only a selection was taken, and the strongest signals are over-represented in it overall.
Experimental readout: glycan array binding signal (z-score)
Answers are plain numbers.

Lookup: What value of glycan array binding signal (z-score) has been recorded for this entry: Cohesin-hMARCO (Homo sapiens) (protein) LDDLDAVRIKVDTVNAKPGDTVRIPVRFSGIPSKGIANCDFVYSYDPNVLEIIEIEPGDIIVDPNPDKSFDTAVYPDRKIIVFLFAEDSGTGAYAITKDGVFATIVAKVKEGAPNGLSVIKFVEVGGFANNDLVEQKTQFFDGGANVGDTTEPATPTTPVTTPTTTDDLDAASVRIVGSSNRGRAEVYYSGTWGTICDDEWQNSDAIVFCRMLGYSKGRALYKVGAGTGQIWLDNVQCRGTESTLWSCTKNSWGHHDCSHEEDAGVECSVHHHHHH
Found: -0.156

Recorded values, source the supplement of paper PMC8728848.
